All values here come from patent US20170305857A1.

Target: recombinant His-tagged cytoplasmic domains of TRKA receptor (NTRK1, PV3144, aa 441-796) (Homo sapiens)
Construct: aa 441-796; His
Test: Isolated TRK enzyme assay (HTRF KinEASE-TK, PV3144 TrkA enzyme assay)
Settings: 4 nM enzyme, 40 uM ATP, 35 min, arithmetic mean where more than one reading
Please assign Not satisfied whenever IC50 is at or above 6 nM, and Satisfied whenever it is below.

Request: Hello, I'm reviewing records and need to know if IC50 of NC(=O)c1cc(-c2cn[nH]c2)ncc1O[C@@H]1CCN(C(=O)Cc2ccc(OC3CC3)cn2)C[C@@H]1F [Example 87] is below 6 nM. Could you check?
Response: Not satisfied

Request: Same thing, different molecule: Cn1cnc(-c2cnc(O[C@H]3CCN(C(=O)Cc4ccc(OC5CC5)cn4)C[C@@H]3F)c(C(N)=O)c2)c1 [Example 31]
Response: Not satisfied

Request: What about CS(=O)(=O)Cn1cc(-c2cnc(O[C@@H]3CCN(C(=O)Cc4ccc(OC(F)(F)F)c(F)c4)C[C@@H]3F)c(C(N)=O)c2)cn1 [Example 24] ?
Response: Satisfied

Request: And what about the molecule CC(N)c1ccc(-c2cnc(OC3CCN(C(=O)Cc4ccc(OC(F)(F)F)cc4)CC3)c(C(N)=O)c2)cc1 (stereo in doubt) [Example 96] ?
Response: Satisfied

Request: Can you check Cc1nc(-c2ccc(O[C@@H]3CCN(C(=O)Cc4ccc(OC(F)(F)F)cc4)C[C@@H]3F)c(C(N)=O)c2)c[nH]1 [Example 121] next?
Response: Satisfied

Request: Another molecule: Cn1cc(-c2cc(C(N)=O)c(O[C@@H]3CCN(C(=O)Cc4ccc(OC(F)(F)F)cc4)C[C@@H]3F)nn2)cn1 [Example 157]
Response: Not satisfied

Request: What do you have for NC(=O)c1cc(-c2cscn2)ccc1OC1CCN(C(=O)Cc2ccc(OC(F)(F)F)cc2)CC1 [Example 101] ?
Response: Not satisfied

Request: Likewise for NC(=O)c1cc(-c2cnn(CCO)c2)ccc1OC1CCN(C(=O)Cc2ccc(OC3CC3)cc2)CC1 [Example 130] ?
Response: Satisfied

Request: Query NCc1ccc(-c2cnc(OC3CCN(C(=O)Cc4ccc(OC(F)(F)F)cc4)CC3)c(C(N)=O)c2)cc1 [Example 98] next
Response: Not satisfied

----------
Target: recombinant His-tagged cytoplasmic domains of TRKA receptor (NTRK1, PV3144, aa 441-796) (Homo sapiens, UniProt P04629)
Construct: aa 441-796; His; purchased Invitrogen PV3144
Sequence (P04629 441-796): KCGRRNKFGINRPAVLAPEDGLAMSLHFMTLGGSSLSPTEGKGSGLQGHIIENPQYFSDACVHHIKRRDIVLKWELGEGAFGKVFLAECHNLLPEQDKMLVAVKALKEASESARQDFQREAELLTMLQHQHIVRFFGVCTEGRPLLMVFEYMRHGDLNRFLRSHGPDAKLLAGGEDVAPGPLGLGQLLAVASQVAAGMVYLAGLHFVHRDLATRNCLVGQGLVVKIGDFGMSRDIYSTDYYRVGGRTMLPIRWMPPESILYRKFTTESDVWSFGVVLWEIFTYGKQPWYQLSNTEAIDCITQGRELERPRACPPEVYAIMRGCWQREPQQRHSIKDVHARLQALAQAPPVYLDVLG
Test: Isolated TRK enzyme assay (HTRF KinEASE-TK, PV3144 TrkA enzyme assay)
Assay type: biochemical
Conditions: 4 nM enzyme, 40 uM ATP, 35 min, arithmetic mean where more than one reading
Output true (1) for records whose IC50 is lower than 4 nM, false (0) for records at or above 4 nM.

Request: Please determine if NC(=O)c1cc(-c2cnn(C3CS(=O)(=O)C3)c2)ccc1OC1CCN(C(=O)Cc2ccc(OC(F)(F)F)cc2)CC1 [Example 13] is below 4 nM in terms of IC50.
Response: true (1)

Request: Query NCCn1cc(-c2ccc(OC3CCN(C(=O)Cc4ccc(OC(F)(F)F)cc4)CC3)c(C(N)=O)c2)cn1 [Example 138] next
Response: false (0)

Request: Continue with NC(=O)c1cc(-c2c[nH]c(C(F)(F)F)n2)cnc1O[C@@H]1CCN(C(=O)Cc2ccc(OC(F)(F)F)cc2)C[C@@H]1F [Example 183]
Response: false (0)

Request: Next entry: Cc1nc[nH]c1-c1ccc(OC2CCN(C(=O)Cc3ccc(OC(F)(F)F)cc3)CC2)c(C(N)=O)c1 [Example 99]
Response: false (0)

Request: Now give it for NC(=O)c1cc(-c2cnn(C[C@@H](O)CO)c2)ccc1OC1CCN(C(=O)Cc2ccc(OC(F)(F)F)cc2)CC1 [Example 122] too.
Response: false (0)

Request: Would you kindly repeat that for Cn1cnc(-c2ccc(O[C@@H]3CCN(C(=O)Cc4ccc(OC(F)(F)F)cc4)C[C@@H]3F)c(C(N)=O)c2)c1 [Example 6] ?
Response: true (1)

Request: Moving on to NC(=O)c1cc(-c2cnn(CCO)c2)cnc1OC1CCN(C(=O)Cc2ccc(OC(F)(F)F)cc2)CC1 [Example 89]
Response: false (0)

Request: Another: NC(=O)c1cc(-c2c[nH]cn2)cnc1O[C@@H]1CCN(C(=O)Cc2ccc(OC(F)(F)F)cc2)C[C@@H]1F [Example 81]
Response: true (1)

Request: Cool, now NC(=O)c1cc(-c2cc[nH]n2)cnc1OC1CCN(C(=O)Cc2ccc(SC(F)(F)F)cc2)CC1 [Example 60]
Response: false (0)

Request: Another compound to look at: CC1CN(C(=O)Cc2ccc(OC(F)(F)F)cc2)CCC1Oc1ccc(-c2cn(C)cn2)cc1C(N)=O (racemic) [Example 50]
Response: true (1)

----------
Target: recombinant His-tagged cytoplasmic domains of TRKA receptor (NTRK1, PV3144, aa 441-796) (Homo sapiens)
Construct: aa 441-796; His
Experiment: Isolated TRK enzyme assay (HTRF KinEASE-TK, PV3144 TrkA enzyme assay)
Settings: 4 nM enzyme, 40 uM ATP, 35 min, arithmetic mean where more than one reading
Protocol: Isolated TRK Enzyme assays use the HTRF KinEASE-TK kit (Cisbio Cat #62TK0PEJ) with recombinant His-tagged cytoplasmic domains of TRKA receptor sourced from Invitrogen (see table below). […] After the Detection Reagent addition, plates are covered and incubated at room temperature for 60 minutes. […] Test compound data are expressed as percentage inhibition defined by HPE and ZPE values for each plate. […] Where more than one reading was taken, the arithmetic mean is presented.
measured-quantity: IC50 (nM)
Use nM as the unit, but write only the number.

Request: Can you share its IC50? I mean this molecule: CS(=O)(=O)Cn1cc(-c2cnc(O[C@H]3CCN(C(=O)Cc4ccc(OC(F)(F)F)c(F)c4)C[C@@H]3F)c(C(N)=O)c2)cn1 [Example 26]
Response: 8.9

Request: Also CC(C)c1ccc(CC(=O)N2CCC(Oc3ccc(-c4cnn(C)c4)cc3C(N)=O)CC2)cc1 [Example 109] , if possible.
Response: 7.1

Request: What would you report for Cn1cnc(-c2ccc(O[C@@H]3CCN(C(=O)Cc4ccc(OC(F)(F)F)cc4)C[C@H]3F)c(C(N)=O)c2)c1 (single isomer, unassigned) [Example 112] ?
Response: 6.4
